Target: Src E280V (Gallus gallus, UniProt P00523, E280V)
Experiment: In vitro kinase assay, c-Src E280V kinase domain
Conditions: read-out: IC50 Src E280V; Table 2; kinase domain construct
READOUT_TYPE: IC50 (nM)
Give bare numbers, in nM.

q: Tell me the measured IC50 of COc1ccc(Nc2ncnc(-c3cccnc3Nc3cc(NC(=O)c4ccc(CN5CCN(C)CC5)cc4)ccc3C)n2)cc1 [DSA8] , please.
a: 4

----------
Target: Src T338I (Gallus gallus, UniProt P00523, T338I)
Assay: In vitro kinase assay, c-Src T338I kinase domain
Settings: read-out: IC50 Src T338I; Table 2; kinase domain construct
READOUT_TYPE: pIC50
Numbers only, as −log10 of the molar value.

q: Tell me the measured pIC50 of COc1ccc(Nc2ncnc(-c3cccnc3Nc3cc(NC(=O)c4ccc(CN5CCN(C)CC5)cc4)ccc3C)n2)cc1 , please.
a: 7.74

----------
Biological target: Src F278H (Gallus gallus, UniProt P00523, F278H)
Test: In vitro kinase assay, c-Src F278H kinase domain
Details: read-out: IC50 Src F278H; Table 2; kinase domain construct
READOUT_TYPE: pIC50
Give bare numbers, as −log10 of the molar value.

q: Tell me the measured pIC50 of COc1ccc(Nc2ncnc(-c3cccnc3Nc3cc(NC(=O)c4ccc(CN5CCN(C)CC5)cc4)ccc3C)n2)cc1 [DSA8] , please.
a: 8.15

----------
Molecular target: Src F382V (Gallus gallus, UniProt P00523, Y382V)
Assay: In vitro kinase assay, c-Src 382V kinase domain
Conditions: read-out: IC50 Src F382V; Table 2; kinase domain construct
READOUT_TYPE: IC50 (nM)
One number for each entry, in nM.

q: Tell me the measured IC50 of COc1ccc(Nc2ncnc(-c3cccnc3Nc3cc(NC(=O)c4ccc(CN5CCN(C)CC5)cc4)ccc3C)n2)cc1 , please.
a: 4.4
